target or test system: human PPARα (Homo sapiens)
Construct: expressed in transfected cells; host or cells: MCF-7 human breast cancer cells, transiently transfected (DOTAP)
Sequence (Q07869 whole entry): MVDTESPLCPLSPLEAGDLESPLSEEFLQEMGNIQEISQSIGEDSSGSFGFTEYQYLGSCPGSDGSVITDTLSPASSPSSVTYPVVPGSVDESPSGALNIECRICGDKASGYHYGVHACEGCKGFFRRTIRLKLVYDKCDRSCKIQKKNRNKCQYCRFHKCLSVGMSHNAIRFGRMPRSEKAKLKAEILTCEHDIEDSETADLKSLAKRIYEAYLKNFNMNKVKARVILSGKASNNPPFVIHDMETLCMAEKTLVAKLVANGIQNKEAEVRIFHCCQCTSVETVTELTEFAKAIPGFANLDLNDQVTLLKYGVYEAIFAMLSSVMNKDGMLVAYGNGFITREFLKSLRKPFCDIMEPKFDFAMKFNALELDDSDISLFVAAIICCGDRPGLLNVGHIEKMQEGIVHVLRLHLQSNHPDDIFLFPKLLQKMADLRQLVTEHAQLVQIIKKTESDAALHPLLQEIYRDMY
run description: Luciferase reporter gene assay (RGA) in transfected MCF-7 cells
Format: cell-based
cond: endogenous coregulator levels; MCF-7 cells, 16 h; 10 μM WY14643, 1 μM OEA and analogs
parameter: induction of the basal level of PPARα on the PPRE (relative luciferase activity)

Below, each entry is followed by its recorded induction of the basal level of PPARα on the PPRE (relative luciferase activity) result.
{"compound": "CCCCCCCC/C=C\\CCCCCCCC(=O)NCCO [OEA]", "observed value": "~6 times"}
{"compound": "CCCCCCCCCCCCCCCCCCNS(=O)(=O)NCCC [Compound 7, N-octadecyl-N′-propylsulfamide]", "observed value": "~6 times"}

Query: Could you share which induction of the basal level of PPARα on the PPRE (relative luciferase activity) value was measured for Cc1cccc(Nc2cc(Cl)nc(SCC(=O)O)n2)c1C [WY14643, reference compound] ?
Reply: ~6 times

Data provenance is patent US8188312B2.
